- EXPERIMENTAL TARGET: Peroxisome proliferator-activated receptor gamma (Homo sapiens, UniProt P37231)
- Sequence (P37231 whole entry): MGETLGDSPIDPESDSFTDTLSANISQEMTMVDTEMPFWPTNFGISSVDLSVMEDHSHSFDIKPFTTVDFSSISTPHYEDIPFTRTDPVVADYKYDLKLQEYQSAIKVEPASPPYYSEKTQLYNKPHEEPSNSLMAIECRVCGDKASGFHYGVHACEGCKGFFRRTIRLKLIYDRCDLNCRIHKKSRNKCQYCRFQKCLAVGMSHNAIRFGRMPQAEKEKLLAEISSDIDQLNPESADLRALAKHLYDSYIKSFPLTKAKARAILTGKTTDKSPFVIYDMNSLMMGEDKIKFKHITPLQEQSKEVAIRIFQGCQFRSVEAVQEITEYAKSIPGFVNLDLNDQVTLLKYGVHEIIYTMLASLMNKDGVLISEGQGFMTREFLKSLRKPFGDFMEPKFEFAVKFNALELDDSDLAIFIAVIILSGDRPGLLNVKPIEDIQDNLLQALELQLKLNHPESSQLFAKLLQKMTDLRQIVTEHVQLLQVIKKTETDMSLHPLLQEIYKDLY
- ASSAY PROTOCOL: Lanthascreen Competitive Binding Assay: The assay was performed according to manufacturer protocol. A mixture of […], 5 nM Tb-GST-antibody, 5 nM Fluormone Pan-PPAR Green, and serial dilutions of the experimental compound, beginning at 10 μM downwards, was added to wells of black 384-well low-volume plates (Greiner) to a total volume of 18 μL. All dilutions were made in TR-FRET assay buffer C. DMSO at 2% final concentration was used as a no-ligand control. Experiment was performed in triplicate, and incubated for 2 hours in the dark prior to assay read in Perkin Elmer ViewLux ultra HTS microplate reader. FRET signal was measured by excitation at 340 nm and emission at 520 nm for fluorescein and 490 nm for terbium. Fold change over DMSO was calculated using GraphPad Prism Software (La Jolla, Calif.) by calculating 520 nm/490 nm ratio. Graphs were plotted as fold change of FRET signal for compound treatment over DMSO-only control.
READOUT LABEL: IC50

Answered examples (6):
Cc1c(C)n(Cc2ccc(-c3ccccc3C(=O)O)cc2)c2ccc(C(=O)N[C@H]3CCN(C(=O)OCc4ccccc4)C3)cc12	536 nM
CCC(NC(=O)c1ccc2c(c1)cc(C)n2Cc1ccc(-c2ccccc2C(=O)O)cc1)c1ccccc1 (configuration not stated)	2 nM
Cc1c(C)n(Cc2ccc(-c3ccccc3C(=O)O)cc2)c2ccc(C(=O)N[C@@H](C)C3CCN(C(=O)NCc4ccccc4)CC3)cc12	805 nM
CC[C@@H](NC(=O)c1ccc2c(c1)c(C)c(C)n2Cc1ccccc1-c1cccc(C(=O)O)c1)c1ccccc1	20 nM
Cc1c(C)n(Cc2ccc(-c3ccccc3C(=O)O)cc2)c2ccc(C(=O)N[C@@H](C)c3ccc(OC(C)(C)C)cc3)cc12	449 nM
Cc1cn(Cc2ccc(-c3ccccc3C(=O)O)cc2)c2ccc(C(=O)N[C@@H](C)c3ccc([N+](=O)[O-])cc3)cc12	126 nM

Attention now turns to another entry.
QUERY: # query: IC50 of entry CCC(NC(=O)c1ccc2c(c1)c(C)cn2Cc1ccc(-c2ccccc2C(=O)O)cc1)c1ccccc1 (configuration not stated)
RESULT: 2 nM

---

# pIC50 values compiled below
- EXPERIMENTAL TARGET: Peroxisome proliferator-activated receptor gamma (Homo sapiens, UniProt P37231)
- ASSAY PROTOCOL: Lanthascreen Competitive Binding Assay: The assay was performed according to manufacturer protocol. A mixture of […], 5 nM Tb-GST-antibody, 5 nM Fluormone Pan-PPAR Green, and serial dilutions of the experimental compound, beginning at 10 μM downwards, was added to wells of black 384-well low-volume plates (Greiner) to a total volume of 18 μL. All dilutions were made in TR-FRET assay buffer C. DMSO at 2% final concentration was used as a no-ligand control. Experiment was performed in triplicate, and incubated for 2 hours in the dark prior to assay read in Perkin Elmer ViewLux ultra HTS microplate reader. FRET signal was measured by excitation at 340 nm and emission at 520 nm for fluorescein and 490 nm for terbium. Fold change over DMSO was calculated using GraphPad Prism Software (La Jolla, Calif.) by calculating 520 nm/490 nm ratio. Graphs were plotted as fold change of FRET signal for compound treatment over DMSO-only control.
Expect pIC50 as a plain number equal to -log10 of the molar concentration.

Answered examples (2):
Cc1c(C)n(Cc2ccc(-c3ccccc3C(=O)O)cc2)c2ccc(C(=O)N[C@@H](C)c3cccc(OC(C)C)c3)cc12	7.72
CCC(NC(=O)c1ccc2c(c1)c(C)c(C)n2Cc1ccc(-c2ccccc2C#N)cc1)c1ccccc1 (centres undefined)	9.27

QUERY: # query: pIC50 of entry `CC[C@@H](NC(=O)c1ccc2c(c1)c(C)c(C)n2Cc1ccccc1-c1ccc(C(=O)O)cc1)c1ccccc1`
RESULT: 7.10

---

- EXPERIMENTAL TARGET: Peroxisome proliferator-activated receptor gamma (Homo sapiens, UniProt P37231)
- ASSAY PROTOCOL: Lanthascreen Competitive Binding Assay: The assay was performed according to manufacturer protocol. A mixture of […], 5 nM Tb-GST-antibody, 5 nM Fluormone Pan-PPAR Green, and serial dilutions of the experimental compound, beginning at 10 μM downwards, was added to wells of black 384-well low-volume plates (Greiner) to a total volume of 18 μL. All dilutions were made in TR-FRET assay buffer C. DMSO at 2% final concentration was used as a no-ligand control. Experiment was performed in triplicate, and incubated for 2 hours in the dark prior to assay read in Perkin Elmer ViewLux ultra HTS microplate reader. FRET signal was measured by excitation at 340 nm and emission at 520 nm for fluorescein and 490 nm for terbium. Fold change over DMSO was calculated using GraphPad Prism Software (La Jolla, Calif.) by calculating 520 nm/490 nm ratio. Graphs were plotted as fold change of FRET signal for compound treatment over DMSO-only control.
Exam item: assign fulfilled to entries whose IC50 is below 30 nM and not fulfilled to entries at or above 30 nM. Note that a value of exactly 30 nM receives not fulfilled.

Example cases with answers are listed next.
Cc1c(C)n(Cc2ccc(-c3ccccc3C(=O)O)cc2)c2ccc(C(=O)NCc3ccc(F)c(F)c3)cc12	not fulfilled
Cc1c(C)n(Cc2ccc(-c3ccccc3C(=O)O)cc2)c2ccc(C(=O)N[C@@H](C)c3ccc(Cl)c(C(F)(F)F)c3)cc12	fulfilled
Cc1c(C)n(Cc2ccc(-c3ccccc3C(=O)O)cc2)c2ccc(C(=O)N[C@@H](C)c3ccc(OC(C)C)cc3)cc12	not fulfilled
Cc1c(C)n(Cc2ccc(-c3cccnc3)cc2)c2ccc(C(=O)N[C@@H](C)c3ccc([N+](=O)[O-])cc3)cc12	not fulfilled

# input for lookup
QUERY: Lab log: compare recorded IC50 with 30 nM; is it strictly lower for `CC[C@H](NC(=O)c1ccc2c(c1)c(C)c(C)n2Cc1ccccc1-c1cccc(C(=O)O)c1)c1ccccc1` ?
RESULT: not fulfilled
